Target: S. meliloti GMK (Sinorhizobium meliloti, UniProt Q92QZ2)

COMPOUND	Ki, µM
Nc1nc2c(ncn2[C@@H]2O[C@H](COP(=O)(O)OP(=O)(O)OP(=O)(O)O)[C@@H](OP(=O)(O)OP(=O)(O)O)[C@H]2O)c(=O)[nH]1 [pppGpp, guanosine pentaphosphate]	81.6

* * *

Biological target: A. tumefaciens GMK (Agrobacterium tumefaciens)
Assay type: biochemical
QUANTITY KIND: Ki (µM)

COMPOUND	TARGET ENTITY	TEST RESULT
Nc1nc2c(ncn2[C@@H]2O[C@H](COP(=O)(O)OP(=O)(O)OP(=O)(O)O)[C@@H](OP(=O)(O)OP(=O)(O)O)[C@H]2O)c(=O)[nH]1 [pppGpp, guanosine pentaphosphate]	A. tumefaciens GMK (Agrobacterium tumefaciens)	53.5

* * *

Target: B. anthracis GMK (Bacillus anthracis, UniProt Q81WG7)
QUANTITY KIND: IC50

COMPOUND	QUANTITY KIND	TEST RESULT
Nc1nc2c(ncn2[C@@H]2O[C@H](COP(=O)(O)OP(=O)(O)OP(=O)(O)O)[C@@H](OP(=O)(O)OP(=O)(O)O)[C@H]2O)c(=O)[nH]1 [pppGpp, guanosine pentaphosphate]	IC50	~120 µM

* * *

Molecular target: C. gilvus GMK (Cellulomonas gilvus, UniProt F8A6C8)

COMPOUND	TARGET ENTITY	UNIT LABEL	Ki
Nc1nc2c(ncn2[C@@H]2O[C@H](COP(=O)(O)OP(=O)(O)OP(=O)(O)O)[C@@H](OP(=O)(O)OP(=O)(O)O)[C@H]2O)c(=O)[nH]1 [pppGpp, guanosine pentaphosphate]	C. gilvus GMK (Cellulomonas gilvus, UniProt F8A6C8)	nM	1700

* * *

Target: UniProt Q9KXS0

COMPOUND	TARGET ENTITY	Ki [µM]
Nc1nc2c(ncn2[C@@H]2O[C@H](COP(=O)(O)OP(=O)(O)OP(=O)(O)O)[C@@H](OP(=O)(O)OP(=O)(O)O)[C@H]2O)c(=O)[nH]1 [pppGpp, guanosine pentaphosphate]	UniProt Q9KXS0	61.5

* * *

Target: T. thermophilus GMK (Thermus thermophilus)
Sequence (Q5SI18 whole entry): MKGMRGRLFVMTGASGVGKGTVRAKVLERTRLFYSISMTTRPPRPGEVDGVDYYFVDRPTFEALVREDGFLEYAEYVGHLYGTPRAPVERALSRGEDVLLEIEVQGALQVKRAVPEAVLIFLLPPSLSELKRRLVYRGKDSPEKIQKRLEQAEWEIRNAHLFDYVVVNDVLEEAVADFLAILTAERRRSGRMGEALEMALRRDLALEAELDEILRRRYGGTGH

COMPOUND	UNIT LABEL	Ki
Nc1nc2c(ncn2[C@@H]2O[C@H](COP(=O)(O)OP(=O)(O)OP(=O)(O)O)[C@@H](OP(=O)(O)OP(=O)(O)O)[C@H]2O)c(=O)[nH]1 [pppGpp, guanosine pentaphosphate]	nM	2900

* * *

// Ki collected for S. aureus GMK (Staphylococcus aureus)

COMPOUND	UNIT LABEL	Ki
Nc1nc2c(ncn2[C@@H]2O[C@H](COP(=O)(O)OP(=O)(O)OP(=O)(O)O)[C@@H](OP(=O)(O)OP(=O)(O)O)[C@H]2O)c(=O)[nH]1 [pppGpp, guanosine pentaphosphate]	µM	7
Nc1nc2c(ncn2[C@@H]2O[C@H](COP(=O)(O)OP(=O)(O)O)[C@@H](OP(=O)(O)OP(=O)(O)O)[C@H]2O)c(=O)[nH]1 [ppGpp, guanosine tetraphosphate]	µM	8.2

* * *

Molecular target: L. monocytogenes GMK (Listeria monocytogenes serovar 1/2a, UniProt Q8Y672)
Experiment: biochemical

COMPOUND	TARGET ENTITY	Ki / µM
Nc1nc2c(ncn2[C@@H]2O[C@H](COP(=O)(O)OP(=O)(O)OP(=O)(O)O)[C@@H](OP(=O)(O)OP(=O)(O)O)[C@H]2O)c(=O)[nH]1 [pppGpp, guanosine pentaphosphate]	L. monocytogenes GMK (Listeria monocytogenes serovar 1/2a, UniProt Q8Y672)	12

* * *

Target: S. mutans GMK (Streptococcus mutans serotype c)
pKi: −log10 of the molar value.

COMPOUND	pKi
Nc1nc2c(ncn2[C@@H]2O[C@H](COP(=O)(O)OP(=O)(O)OP(=O)(O)O)[C@@H](OP(=O)(O)OP(=O)(O)O)[C@H]2O)c(=O)[nH]1 [pppGpp, guanosine pentaphosphate]	4.78

* * *

Molecular target: D. radiodurans GMK (Deinococcus radiodurans)
Sequence (Q9RS38 whole entry): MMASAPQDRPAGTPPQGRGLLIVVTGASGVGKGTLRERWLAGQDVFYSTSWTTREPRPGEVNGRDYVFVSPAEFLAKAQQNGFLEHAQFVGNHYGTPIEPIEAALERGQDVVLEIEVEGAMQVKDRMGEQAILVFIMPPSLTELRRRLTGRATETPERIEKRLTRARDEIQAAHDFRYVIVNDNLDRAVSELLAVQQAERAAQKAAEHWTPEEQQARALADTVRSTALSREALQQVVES
QUANTITY KIND: Ki (nM)

COMPOUND	TARGET ENTITY	QUANTITY KIND	UNIT LABEL	TEST RESULT
Nc1nc2c(ncn2[C@@H]2O[C@H](COP(=O)(O)OP(=O)(O)OP(=O)(O)O)[C@@H](OP(=O)(O)OP(=O)(O)O)[C@H]2O)c(=O)[nH]1 [pppGpp, guanosine pentaphosphate]	D. radiodurans GMK (Deinococcus radiodurans)	Ki	nM	1600

* * *

Target: B. anthracis GMK (Bacillus anthracis, UniProt Q81WG7)

COMPOUND	Ki / µM
Nc1nc2c(ncn2[C@@H]2O[C@H](COP(=O)(O)OP(=O)(O)OP(=O)(O)O)[C@@H](OP(=O)(O)OP(=O)(O)O)[C@H]2O)c(=O)[nH]1 [pppGpp, guanosine pentaphosphate]	42.5

* * *

Target: L. monocytogenes GMK (Listeria monocytogenes serovar 1/2a, UniProt Q8Y672)
Assay: biochemical
QUANTITY KIND: IC50

COMPOUND	TARGET ENTITY	TEST RESULT
Nc1nc2c(ncn2[C@@H]2O[C@H](COP(=O)(O)OP(=O)(O)OP(=O)(O)O)[C@@H](OP(=O)(O)OP(=O)(O)O)[C@H]2O)c(=O)[nH]1 [pppGpp, guanosine pentaphosphate]	L. monocytogenes GMK (Listeria monocytogenes serovar 1/2a, UniProt Q8Y672)	9 to 24 µM

Where these numbers come from: paper PMC4336630
